Values were extracted from ChEMBL document CHEMBL1157516.

Ki values by entry
# test target: Substance-P receptor (Homo sapiens, UniProt P25103)
# Sequence (P25103 whole entry): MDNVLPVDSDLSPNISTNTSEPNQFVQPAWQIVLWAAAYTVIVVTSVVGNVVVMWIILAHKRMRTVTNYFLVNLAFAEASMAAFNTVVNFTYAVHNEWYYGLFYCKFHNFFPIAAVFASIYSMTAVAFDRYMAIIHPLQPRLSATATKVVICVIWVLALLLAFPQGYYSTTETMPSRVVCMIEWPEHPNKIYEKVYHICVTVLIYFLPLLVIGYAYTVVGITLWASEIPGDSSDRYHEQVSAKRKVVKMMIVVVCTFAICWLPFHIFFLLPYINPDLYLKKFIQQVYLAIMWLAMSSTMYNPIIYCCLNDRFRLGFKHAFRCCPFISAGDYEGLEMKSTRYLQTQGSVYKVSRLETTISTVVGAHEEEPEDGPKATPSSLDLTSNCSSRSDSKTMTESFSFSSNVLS
# protocol summary: Displacement of [3H]Sar-Met substance P from human recombinant NK1 receptor expressed in CHO cells
Give just the number in nM; leave the unit off.

Worked cases, answers included:
INSERT INTO assay_data (molecule, measurement_unit, assay_result) VALUES
  ('C[C@@H](OC[C@@]1(c2ccccc2)C[C@H](N2CCCC2=O)C(=O)N1)c1cc(C(F)(F)F)cc(C(F)(F)F)c1', 'nM', 0.2),
  ('CCC(=O)N[C@H]1C[C@@](CO[C@H](C)c2cc(C(F)(F)F)cc(C(F)(F)F)c2)(c2ccccc2)NC1=O', 'nM', 0.3),
  ('C[C@H]1C[C@@](CO[C@H](C)c2cc(C(F)(F)F)cc(C(F)(F)F)c2)(c2ccccc2)NC1=O', 'nM', 0.7),
  ('C[C@@H](OC[C@@]1(c2ccccc2)C[C@H](N2CCCC2)C(=O)N1)c1cc(C(F)(F)F)cc(C(F)(F)F)c1', 'nM', 0.4),
  ('C[C@@H](OC[C@@]1(c2ccccc2)C[C@@H](NS(C)(=O)=O)C(=O)N1)c1cc(C(F)(F)F)cc(C(F)(F)F)c1', 'nM', 2.6),
  ('C[C@@H](OC[C@@]1(c2ccccc2)CC(N)C(=O)N1)c1cc(C(F)(F)F)cc(C(F)(F)F)c1 (stereo partly specified)', 'nM', 0.4);

**Q:** Give the measured Ki of CCC(=O)N[C@@H]1C[C@@](CO[C@H](C)c2cc(C(F)(F)F)cc(C(F)(F)F)c2)(c2ccccc2)NC1=O .
**A:** 0.3

**Q:** Sample CC(=O)N[C@@H]1C[C@@](CO[C@H](C)c2cc(C(F)(F)F)cc(C(F)(F)F)c2)(c2ccccc2)NC1=O — what was its Ki?
**A:** 0.9

**Q:** GET /values?readout=Ki&item= C[C@@H]1C[C@@](CO[C@H](C)c2cc(C(F)(F)F)cc(C(F)(F)F)c2)(c2ccccc2)NC1=O
**A:** 2

**Q:** # lookup: Ki of C[C@@H](OC[C@@]1(c2ccccc2)CCC(=O)N1)c1cc(C(F)(F)F)cc(C(F)(F)F)c1
**A:** 0.6

**Q:** Any idea what Ki was measured for C[C@@H](OC[C@@]1(c2ccccc2)C[C@@H](N2CCCC2=O)C(=O)N1)c1cc(C(F)(F)F)cc(C(F)(F)F)c1 ?
**A:** 0.5

**Q:** What does the record list as Ki for C[C@@H](OC[C@@]1(c2ccccc2)CC(O)C(=O)N1)c1cc(C(F)(F)F)cc(C(F)(F)F)c1 (stereo partly specified) ?
**A:** 0.5

**Q:** Query (molecule): CC(=O)N[C@H]1C[C@@](CO[C@H](C)c2cc(C(F)(F)F)cc(C(F)(F)F)c2)(c2ccccc2)NC1=O ; field requested: Ki
**A:** 0.3
